Target: MELK (Homo sapiens)
Sequence (Q14680 whole entry, species assumed): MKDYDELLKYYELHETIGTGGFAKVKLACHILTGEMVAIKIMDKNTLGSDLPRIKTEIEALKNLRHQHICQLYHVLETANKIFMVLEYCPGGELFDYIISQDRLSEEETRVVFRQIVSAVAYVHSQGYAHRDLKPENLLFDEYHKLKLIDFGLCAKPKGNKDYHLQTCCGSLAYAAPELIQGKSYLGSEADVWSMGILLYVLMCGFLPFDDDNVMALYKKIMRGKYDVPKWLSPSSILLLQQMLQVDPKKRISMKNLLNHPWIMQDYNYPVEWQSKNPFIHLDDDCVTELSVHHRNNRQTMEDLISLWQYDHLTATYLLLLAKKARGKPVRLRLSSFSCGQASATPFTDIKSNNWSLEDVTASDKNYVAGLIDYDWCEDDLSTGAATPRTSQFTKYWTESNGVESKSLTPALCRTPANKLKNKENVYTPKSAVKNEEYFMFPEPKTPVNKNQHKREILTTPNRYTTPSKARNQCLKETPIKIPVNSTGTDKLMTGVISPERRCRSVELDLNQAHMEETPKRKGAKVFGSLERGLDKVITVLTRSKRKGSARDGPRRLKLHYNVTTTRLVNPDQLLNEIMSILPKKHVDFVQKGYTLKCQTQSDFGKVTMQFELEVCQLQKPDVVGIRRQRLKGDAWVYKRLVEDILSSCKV
Assay: Kinase profiling MELK
Assay type: biochemical
Conditions: 100 micromolar inhibitor concentration; 100 is no change
READOUT TYPE: residual kinase activity, MELK
Write the number on its own, no unit after it.

Solved cases below.
O=C(Nc1nc2ccc(O)cc2s1)c1ccccn1    31
O=C(Nc1nc2ccc(O)cc2s1)c1ccccc1    18

Suppose we examine the molecule O=C(Nc1nc2cc(O)ccc2s1)c1cccnc1 ; what residual kinase activity, MELK value has been reported?
29

* * *

Molecular target: UniProt Q15303
Sequence (Q15303 26-1308, species assumed): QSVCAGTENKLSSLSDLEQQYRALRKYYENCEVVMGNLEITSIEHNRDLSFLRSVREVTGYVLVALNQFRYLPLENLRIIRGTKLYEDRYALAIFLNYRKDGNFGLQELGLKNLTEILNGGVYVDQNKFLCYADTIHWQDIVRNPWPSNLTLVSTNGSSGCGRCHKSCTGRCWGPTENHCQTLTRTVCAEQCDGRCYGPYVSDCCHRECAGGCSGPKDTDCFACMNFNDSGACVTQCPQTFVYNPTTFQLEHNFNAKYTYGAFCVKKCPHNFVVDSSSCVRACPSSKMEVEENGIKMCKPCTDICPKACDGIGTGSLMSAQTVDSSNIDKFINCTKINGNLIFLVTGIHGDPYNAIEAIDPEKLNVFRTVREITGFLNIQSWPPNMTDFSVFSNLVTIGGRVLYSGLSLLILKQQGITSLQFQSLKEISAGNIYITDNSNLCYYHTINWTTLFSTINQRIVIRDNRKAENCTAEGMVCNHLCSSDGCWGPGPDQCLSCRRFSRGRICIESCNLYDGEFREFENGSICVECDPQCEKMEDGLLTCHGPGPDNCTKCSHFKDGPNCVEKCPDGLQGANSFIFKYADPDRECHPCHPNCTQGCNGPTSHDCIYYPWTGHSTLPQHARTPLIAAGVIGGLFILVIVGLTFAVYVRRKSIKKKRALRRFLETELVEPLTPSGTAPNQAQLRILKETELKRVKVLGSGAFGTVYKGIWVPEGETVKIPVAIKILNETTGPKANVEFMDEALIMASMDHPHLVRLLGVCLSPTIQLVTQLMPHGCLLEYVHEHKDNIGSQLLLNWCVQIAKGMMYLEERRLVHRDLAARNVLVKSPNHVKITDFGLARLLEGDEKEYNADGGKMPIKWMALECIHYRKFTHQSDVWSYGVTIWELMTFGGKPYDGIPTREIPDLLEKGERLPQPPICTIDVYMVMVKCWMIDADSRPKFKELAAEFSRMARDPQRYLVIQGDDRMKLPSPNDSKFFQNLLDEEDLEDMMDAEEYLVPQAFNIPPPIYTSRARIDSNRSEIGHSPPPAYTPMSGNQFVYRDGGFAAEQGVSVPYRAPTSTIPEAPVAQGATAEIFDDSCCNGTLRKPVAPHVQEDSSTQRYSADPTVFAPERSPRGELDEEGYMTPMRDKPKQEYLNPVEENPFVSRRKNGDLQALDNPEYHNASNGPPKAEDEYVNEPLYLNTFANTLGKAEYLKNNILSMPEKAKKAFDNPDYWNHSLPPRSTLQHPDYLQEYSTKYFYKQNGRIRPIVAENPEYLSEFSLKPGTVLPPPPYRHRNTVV
Assay: Kinase profiling HER4
Type: biochemical
Details: 100 micromolar inhibitor concentration; 100 is no change
Decide by residual kinase activity, HER4: equal to or exceeding 80 means Condition met, less means Condition not met.

These solved cases illustrate the format of a correct answer.
O=C(Nc1nc2ccc(O)cc2s1)c1ccccn1    Condition not met
O=C(Nc1nc2ccc(O)cc2s1)c1cccnc1    Condition not met
O=C(Nc1nc2ccc(O)cc2s1)c1ccccc1    Condition not met
O=C(Nc1nc2cc(O)ccc2s1)c1ccccc1    Condition not met
O=C(Nc1nc2ccc(O)cc2s1)c1ccncc1    Condition not met

Shift focus to the following entry.
I'd appreciate it if you could say whether O=C(Nc1nc2cc(O)ccc2s1)c1ccccn1 has residual kinase activity, HER4 at least equal to 80.
Condition met
